This collection of values is drawn from patent US20260167731A1.

molecular target: human CCR8 (human, UniProt P51685 1-355); experiment: cell-based or functional assay
Kindly supply the reported hCCL1 (100 nM) residual response in %, Protocol #2, mAb 0.4 µg/mL (2.67 nM) values for the records listed here.
Write the answer as a number in %, unit excluded.

[in] Query: hCCL1 (100 nM) residual response in %, Protocol #2, mAb 0.4 µg/mL (2.67 nM); subject: anti-CCR8 mAb 2-9 (antibody, V domains shown) VH: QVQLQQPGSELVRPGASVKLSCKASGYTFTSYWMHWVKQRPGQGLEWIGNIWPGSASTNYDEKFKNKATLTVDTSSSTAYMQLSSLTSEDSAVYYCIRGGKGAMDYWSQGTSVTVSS VL: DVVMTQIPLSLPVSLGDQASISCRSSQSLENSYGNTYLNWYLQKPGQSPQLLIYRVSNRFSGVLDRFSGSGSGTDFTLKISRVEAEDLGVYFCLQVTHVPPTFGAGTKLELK
[out] 83

[in] Recorded hCCL1 (100 nM) residual response in %, Protocol #2, mAb 0.4 µg/mL (2.67 nM) of anti-CCR8 mAb 2-11 (antibody, V domains shown) VH: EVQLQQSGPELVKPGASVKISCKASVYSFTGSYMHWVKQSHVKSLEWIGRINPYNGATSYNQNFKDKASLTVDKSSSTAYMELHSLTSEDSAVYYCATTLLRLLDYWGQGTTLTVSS VL: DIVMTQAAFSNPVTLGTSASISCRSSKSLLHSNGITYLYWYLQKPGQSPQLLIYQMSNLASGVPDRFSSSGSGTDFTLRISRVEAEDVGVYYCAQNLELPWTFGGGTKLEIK , please.
[out] 96

[in] Would you kindly share the measured hCCL1 (100 nM) residual response in %, Protocol #2, mAb 0.4 µg/mL (2.67 nM) for humanized anti-CCR8 mAb 2-14 (antibody, human IgG1, kappa, V domains shown, Humanized, human IgG1 / kappa) VH: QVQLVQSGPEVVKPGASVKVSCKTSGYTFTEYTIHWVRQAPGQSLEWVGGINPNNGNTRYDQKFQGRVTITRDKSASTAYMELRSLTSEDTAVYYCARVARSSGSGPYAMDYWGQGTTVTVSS VL: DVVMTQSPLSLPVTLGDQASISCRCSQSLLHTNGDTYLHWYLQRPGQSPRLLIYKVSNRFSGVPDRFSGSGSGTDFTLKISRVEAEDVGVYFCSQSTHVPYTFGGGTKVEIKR ?
[out] 55

[in] Look up hCCL1 (100 nM) residual response in %, Protocol #2, mAb 0.4 µg/mL (2.67 nM) for this binder: humanized anti-CCR8 mAb 2-15 (antibody, human IgG1, kappa, V domains shown, Humanized, human IgG1 / kappa) VH: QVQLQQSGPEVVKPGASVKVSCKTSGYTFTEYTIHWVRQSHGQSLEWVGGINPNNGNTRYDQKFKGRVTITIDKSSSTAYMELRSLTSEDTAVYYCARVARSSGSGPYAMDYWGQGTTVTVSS VL: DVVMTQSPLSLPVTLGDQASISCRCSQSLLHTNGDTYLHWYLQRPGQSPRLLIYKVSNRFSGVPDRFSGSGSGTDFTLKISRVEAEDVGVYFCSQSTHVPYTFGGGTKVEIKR
[out] 66

[in] Which hCCL1 (100 nM) residual response in %, Protocol #2, mAb 0.4 µg/mL (2.67 nM) is reported for this binder? anti-CCR8 mAb 2-3 (antibody, V domains shown) VH: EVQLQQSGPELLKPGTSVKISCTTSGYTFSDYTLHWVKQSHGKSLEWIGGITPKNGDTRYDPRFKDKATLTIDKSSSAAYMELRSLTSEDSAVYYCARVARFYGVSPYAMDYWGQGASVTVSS VL: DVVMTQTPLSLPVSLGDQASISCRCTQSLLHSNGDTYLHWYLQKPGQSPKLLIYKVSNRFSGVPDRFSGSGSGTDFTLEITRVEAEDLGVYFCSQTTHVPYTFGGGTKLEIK
[out] 38

[in] Name the reported hCCL1 (100 nM) residual response in %, Protocol #2, mAb 0.4 µg/mL (2.67 nM) value associated with the binder anti-CCR8 mAb 2-2 (antibody, V domains shown) VH: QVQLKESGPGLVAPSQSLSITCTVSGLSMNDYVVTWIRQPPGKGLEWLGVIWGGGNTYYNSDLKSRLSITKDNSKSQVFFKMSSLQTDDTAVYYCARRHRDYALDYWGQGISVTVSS VL: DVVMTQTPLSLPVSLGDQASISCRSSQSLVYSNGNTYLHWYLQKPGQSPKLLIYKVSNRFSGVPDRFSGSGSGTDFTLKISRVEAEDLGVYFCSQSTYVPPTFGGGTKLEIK
[out] 97
